// data source = paper PMC4552634

test system: P. falciparum stage V gametocytes; design: BacTiter-Glo ATP luminescence viability of purified stage V gametocytes in 384-well plates, per cent inhibition versus DMSO; conditions: 48 h, 5 µM; inhibitor
The campaign covered roughly 13,000 compounds. About 3,200 (25%) showed an effect of 50% or more. This is one part of the list.
This listing pairs compounds with measured % Inhibition.
quantityMeasured: % Inhibition (%)

>>> testvalue("CC(C)c1cc2c(ccc3nc(N)nc(N)c32)[nH]1 [TCMDC-137847]")
19.02
>>> testvalue("CCOc1ccc(N(CC)S(=O)(=O)c2cc(Br)cc3c2N(C(=O)C2CC2)CC3)cc1 [TCMDC-125469]")
14.82
>>> testvalue("Cc1cc(N[C@@H](CC(C)C)C(=O)NC2CCCC2)nc(NCc2ccccc2C)n1 [TCMDC-134908]")
-12.42
>>> testvalue("Cc1ccc2nc3ccccc3c(NCCN3CCN(C)CC3)c2c1 [TCMDC-138018]")
95.43
>>> testvalue("c1cc(CNCC2CCCO2)cc(-c2csc(-c3nc4ccccc4[nH]3)c2)c1 (stereo not shown) [TCMDC-133108]")
-15.46
>>> testvalue("COc1ccc2nc3cc(Cl)ccc3c(NCCN3CCN(C)CC3)c2c1 [TCMDC-137476]")
105
>>> testvalue("Cc1ccc(N2C(N)=NC(N)=NC2(C)C)cc1 [TCMDC-131578]")
18.97
>>> testvalue("COCCSc1nc2scc(C)c2c(=O)n1Cc1cccc(OC)c1 [TCMDC-134420]")
25.73
>>> testvalue("CCN(C(=O)CSc1cc(C)c2cc(C)cc(C)c2n1)C1CCS(=O)(=O)C1 (stereo not shown) [TCMDC-123568]")
-6.938
>>> testvalue("Cc1cc(N[C@@H](Cc2ccccc2)C(=O)NC2CCCC2)nc(NCCc2ccc(F)cc2)n1 [TCMDC-134784]")
110
>>> testvalue("Nc1ccc(-c2nc3c(ccc4ccccc43)[nH]2)cc1 [TCMDC-124395]")
24.31
>>> testvalue("CC(C)(C)c1ccc(-c2nc3c(ccc4nc(N)nc(N)c43)[nH]2)cc1 [TCMDC-137984]")
112.2
>>> testvalue("CCOC(=O)NC1=NC(C)(C)N(OCc2ccc(Cl)c(Cl)c2)C(NC(=O)OCC)=N1 [TCMDC-131729]")
1.326
>>> testvalue("Oc1ccc(Br)cc1C(O)CNCc1ccccc1OCc1ccccc1 (stereo not shown) [TCMDC-140564]")
21.06
>>> testvalue("COc1ccc2nc3cc(Cl)ccc3c(Nc3ccc(C(=O)O)cc3)c2c1.Cl [TCMDC-138029]")
43.24
>>> testvalue("O=S(=O)(c1cccc(Br)c1)N1CCCCC(c2ccc(C(F)(F)F)cc2)=N1 [TCMDC-134539]")
-27.96
>>> testvalue("Cc1cc(N)cc2[nH]c(-c3ccc(N)cc3)nc12 [TCMDC-124391]")
-6.074
>>> testvalue("Cc1cc(NC(=O)c2cccs2)ccc1OC1CCN(Cc2ccccc2)CC1 [TCMDC-133988]")
37.37
>>> testvalue("CC(C)Cn1cc(C2CCN(CCN3CCC(CNC(=O)c4ccc(NC(=O)c5ccc(Cl)cc5)cc4)CC3)CC2)c2ccccc21 [TCMDC-138865]")
102.8
>>> testvalue("O=[N+]([O-])c1cccc(-c2nc(-c3ccc(Br)cc3)[nH]c2-c2ccc(Br)cc2)c1 [TCMDC-124605]")
-41.82
>>> testvalue("Nc1ncc(-c2cc3ccccc3o2)c(N)n1 [TCMDC-137177]")
18.48
>>> testvalue("CC(C)Cn1cc(C2CCN(CCN3CCC(CNC(=O)c4ccc(NC(=O)c5cc(Cl)cc(Cl)c5)cc4)CC3)CC2)c2ccccc21 [TCMDC-138868]")
108.5
>>> testvalue("O=C(c1cnn(-c2ccccc2)c1C(F)(F)F)N1CCN(c2ccnc3cc(Cl)ccc23)CC1 [TCMDC-123790]")
-13.06
>>> testvalue("Cc1c(C(C)(C)C)ccc2nc(N)nc(N)c12 [TCMDC-137831]")
-39.39
>>> testvalue("O=C(Nc1ccc(C(=O)Oc2cccc3ccccc23)cc1)N[C@@H](Cc1ccc(O)cc1)C(=O)NC1CCN(Cc2ccc(O)cc2)C1 (stereo partly shown) [TCMDC-135360]")
-40.07
>>> testvalue("CCOC(=O)N1CCN(CCCCNc2c3ccc(Cl)cc3nc3ccc(OC)cc23)CC1.Cl [TCMDC-137579]")
70.35
>>> testvalue("CN1CCC(N2CCC(Oc3cccc(C(=O)NCCCC4CCCC4)c3)CC2)CC1 [TCMDC-124677]")
58.06
>>> testvalue("CCOC(=O)N1CCN(CCCNc2c3ccc(Cl)cc3nc3ccc(OC)cc23)CC1 [TCMDC-137480]")
40.55
>>> testvalue("Clc1ccc(CNc2nc(NCCc3cnc[nH]3)nc(NC3CCCCC3)n2)cc1 [TCMDC-139734]")
-12.92
>>> testvalue("O=C(NCCCCN1CCC(C(c2ccccc2)c2ccccc2)CC1)c1ccc(NC(=O)c2ccc(Cl)cc2)cc1 [TCMDC-138332]")
-3.792
>>> testvalue("Cc1cc(N[C@@H](CC(C)C)C(=O)NC2CCCC2)nc(NCCc2ccc(F)cc2)n1 [TCMDC-134791]")
99.38
>>> testvalue("COc1ccc2nccc(N3CCN(CCNCc4ccc5c(n4)NC(=O)CO5)CC3)c2n1 [TCMDC-141968]")
1.504
>>> testvalue("O=C(Nc1cccnc1)c1ccc(-c2cc3ccncc3cc2OC2CCNCC2)s1 [TCMDC-134228]")
62.63
>>> testvalue("Cc1cc(N[C@@H](Cc2ccccc2)C(=O)NC2CCCC2)nc(NCCOc2ccccc2)n1 [TCMDC-134755]")
31.62
